src = ChEMBL document CHEMBL1152276

Experiment: Inhibition of Salmonella enterica serovar Typhimurium type 3 secretion system-mediated SipA protein secretion by Western blotting
Parameters: species or system Salmonella enterica subsp. enterica serovar Typhimurium
Classify: 1 (yes) when IC50 is strictly less than 40 µM; 0 (no) when IC50 is not.

| Molecule | Label value |
| --- | --- |
| COc1ccc(/C=C2\S/C(=N\c3ccccc3)N(c3ccccc3)C2=O)cc1OC | 0 (no) |
| COc1cc(/C=C2\S/C(=N\c3ccccc3)N(CCCC(=O)O)C2=O)cc(OC)c1O | 0 (no) |
| CC(C)(C)/C=C1\S/C(=N\c2ccccc2)N(c2ccccc2)C1=O | 0 (no) |
| CSc1ccc(/C=C2\S/C(=N\c3ccccc3)N(c3ccccc3)C2=O)cc1 | 1 (yes) |
| COc1cc(/C=C2\S/C(=N\c3ccccc3)N(c3ccccc3)C2=O)cc(OC)c1O | 0 (no) |
| COc1cc(/C=C2\S/C(=N\c3ccccc3)N(C(CCCN)C(=O)N[C@@H](CC3CNc4ccccc43)C(N)=O)C2=O)cc(OC)c1O (mixture of isomers) | 0 (no) |
| COc1cc(/C=C2\S/C(=N\c3ccccc3)N(c3ccc(CNC(=O)OC(C)(C)C)cc3)C2=O)cc(OC)c1O | 0 (no) |
| COc1cc(/C=C2\S/C(=N\c3ccccc3)N(CC(=O)O)C2=O)cc(OC)c1O | 1 (yes) |
| COc1cc(/C=C2\S/C(=N\c3ccccc3)N(C(CCCNC(=N)N)C(=O)N3CSC[C@H]3C(N)=O)C2=O)cc(OC)c1O (some centres undefined) | 0 (no) |

* * *

Reported IC50 is given for each of the following compounds.
Test: Inhibition of Salmonella enterica serovar Typhimurium type 3 secretion system-mediated SipA protein secretion by Western blotting
Parameters: species or system Salmonella enterica subsp. enterica serovar Typhimurium
Readout name: IC50

| Compound | Reported value |
| --- | --- |
| COc1ccc(/N=C2\S/C(=C\c3ccncc3)C(=O)N2c2ccccc2)cc1 | 137 µM |
| COc1cc(/C=C2\S/C(=N\c3ccccc3)N(C(C)C(=O)N[C@@H](Cc3c[nH]c4ccccc34)C(N)=O)C2=O)cc(OC)c1O (stereo in doubt; 44a) | 30 µM |
| COc1cc(/C=C2\S/C(=N\c3ccccc3)N([C@@H](CCCN)C(=O)N[C@@H](Cc3ccc(-c4ccccc4)cc3)C(N)=O)C2=O)cc(OC)c1O | 13 µM |
| O=C1/C(=C/c2ccc(Cl)cc2)S/C(=N\c2ccccc2)N1c1ccccc1 | 322 µM |
| COc1ccc(N2C(=O)/C(=C/c3cc(OC)c(O)c(OC)c3)S/C2=N\c2ccccc2)cc1 | 51 µM |
| COc1cc(/C=C2\S/C(=N\c3ccccc3)N([C@@H](CCCN)C(=O)N[C@@H](C)C(N)=O)C2=O)cc(OC)c1O | 32 µM |
| COc1cc(/C=C2\S/C(=N\c3ccccc3)N(CCCC(=O)OC(C)(C)C)C2=O)cc(OC)c1O | 4 µM |
| COc1cc(/C=C2\S/C(=N\c3ccccc3)N([C@@H](C)C(=O)N[C@@H](CCCNC(=N)N)C(N)=O)C2=O)cc(OC)c1O | 77 µM |

* * *

Assay: Inhibition of Salmonella enterica serovar Typhimurium type 3 secretion system-mediated SipA protein secretion by Western blotting
Parameters: species or system Salmonella enterica subsp. enterica serovar Typhimurium
Reported IC50 is given for each of the following compounds.

| Compound | Reading unit | IC50 |
| --- | --- | --- |
| COc1cc(/C=C2\S/C(=N\c3ccccc3)N(C(CCCNC(=N)N)C(=O)N3Cc4ccccc4C[C@H]3C(N)=O)C2=O)cc(OC)c1O (stereo not given in full) | µM | 115 |
| COc1cc(/C=C2\S/C(=N\c3ccccc3)N([C@H](C)C(=O)N[C@@H](CCCNC(=N)N)C(N)=O)C2=O)cc(OC)c1O | µM | 38 |
| COc1ccc(N2C(=O)/C(=C/C(C)(C)C)S/C2=N\c2ccccc2)cc1 | µM | 160 |
| COc1cc(/C=C2\S/C(=N\c3ccccc3)N([C@H](C)C(=O)N[C@@H](CCCN)C(N)=O)C2=O)cc(OC)c1O | µM | 9 |
| COc1cc(/C=C2\S/C(=N\c3ccccc3)N(C(Cc3ccc(-c4ccccc4)cc3)C(=O)N[C@@H](CCCN)C(N)=O)C2=O)cc(OC)c1O (single isomer, unassigned) | µM | 55 |
| COc1cc(/C=C2\S/C(=N\c3ccccc3)N([C@@H](CCCNC(=N)N)C(=O)N[C@@H](Cc3ccc(-c4ccccc4)cc3)C(N)=O)C2=O)cc(OC)c1O | µM | 50 |
| COc1cc(/C=C2\S/C(=N\c3ccccc3)N(C(CCCNC(=N)N)C(=O)N[C@@H](C)C(N)=O)C2=O)cc(OC)c1O (stereo not given in full) | µM | 41 |
| COc1cc(/C=C2\S/C(=N\c3ccccc3)N([C@@H](CCC(=O)O)C(=O)N[C@@H](Cc3ccc(-c4ccccc4)cc3)C(N)=O)C2=O)cc(OC)c1O | µM | 50 |
| O=C1/C(=C/c2ccncc2)S/C(=N\c2ccccc2)N1c1ccccc1 | µM | 376 |
| COc1cc(/C=C2\S/C(=N\c3ccccc3)N(C(C)C(=O)N[C@@H](Cc3c[nH]c4ccccc34)C(N)=O)C2=O)cc(OC)c1O (stereo in doubt; 44b) | µM | 29 |
| COc1cc(/C=C2\S/C(=N\c3ccccc3)N([C@@H](C)C(=O)N[C@@H](C)C(N)=O)C2=O)cc(OC)c1O | µM | 62 |
| COc1cc(/C=C2\S/C(=N\c3ccccc3)N(c3ccc(CN)cc3)C2=O)cc(OC)c1O | µM | 52 |
| COc1ccc(N2C(=O)/C(=C/C3CCCCC3)S/C2=N\c2ccccc2)cc1 | µM | 278 |
| O=C1/C(=C/C2CCCCC2)S/C(=N\c2ccccc2)N1c1ccccc1 | µM | 225 |
| COc1cc(/C=C2\S/C(=N\c3ccccc3)N(C(CCCN)C(=O)N[C@H](CC3CNc4ccccc43)C(N)=O)C2=O)cc(OC)c1O (mixture of isomers) | µM | 52 |
